System: human lung cancer cell NCI-H460
Test: MTT proliferation assay, NCI-H460
Assay type: cell-based
Settings: Homo sapiens, NCI-H460, 96 h, 4 days, read-out: IC50 (nM), inhibition of proliferation of NCI-H460
Friendly reminder: IC50 below 400 nM is true, at or above is false.

- Cc1ccc(-c2cc(N3CCOC[C@H]3C)nn3c(-c4ccn[nH]4)ncc23)cn1 [Example 24]: true
- C[C@@H]1COCCN1c1cc(-c2ccncc2F)c2cnc(-c3ccn[nH]3)n2n1 [Example 43]: true
- Cn1nccc1-c1cc(N2CCOCC2)nn2c(-c3ccn[nH]3)ncc12 [Example 11]: true
- CCn1nccc1-c1cc(N2CCOC[C@H]2C)nn2c(-c3ccn[nH]3)cnc12 [Example 3]: false
